# credit: ChEMBL document CHEMBL1201862

Tested on: OVCAR-4
Assay: NCI tumour cell line growth inhibition, 48 h
Activity calls are given as the source filed them. Rule as the data show it: active = GI50 up to about 1.1 µM and inactive = higher.
ENDPOINT LABEL: GI50

1) CC(=O)O[C@H]1C[C@H]2[C@@H](OC(C)=O)/C=C3\C[C@](C)(C(=O)[C@H](O)C(=C1C)C2(C)C)[C@@H](O)C[C@@H]3OC(=O)[C@H](O)[C@H](c1ccccc1)N(C)C :: > 100 µM (inactive)
2) CN(C)C(=S)/N=c1\ssc(=S)n1Cc1cccnc1 :: 19.3 µM (inactive)
3) CO[C@]1(c2ccc([N+](=O)[O-])cc2)Oc2ccccc2C(=O)[C@@]1(Nc1ccc(C=O)cc1)OC :: > 10 µM (inactive)
4) CCOc1cc(CCNC)c2c(ccc3ccc(OC)c(O)c32)c1OC :: 13.7 µM (inactive)
5) NNC(=O)CNC(=O)c1ccc(Cl)cc1Cl :: > 100 µM (inactive)
